Hey, just so you know, these numbers are from the supplement of paper PMC10567573.

B1: SLC19A2 (parent)
chain: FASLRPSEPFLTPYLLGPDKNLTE

Variants of: B1
experimentalDetails: protein stability index of a GFP-peptide fusion (GPS, HEK-293T) (PSI 1-6); higher = more stable;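 further: lentivirally expressed fusions sorted by FACS into six bins by GFP to DsRed ratio, PSI derived from sequencing read proportions per bin multiplied by bin number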
studyConditions: c terminus: a fixed tail appended
quantityMeasured: protein stability index
No unit in the answer, please; the number alone is enough.

stdin: Entry `R5S` has what protein stability index?
stdout: 2.07

stdin: Entry `F10P` has what protein stability index?
stdout: 3.15

stdin: Entry `E24M` has what protein stability index?
stdout: 2.03

stdin: Entry `P6S` has what protein stability index?
stdout: 1.78

stdin: Entry `S7I` has what protein stability index?
stdout: 1.5

stdin: Entry `R5L` has what protein stability index?
stdout: 2.1

stdin: Entry `S3A` has what protein stability index?
stdout: 1.59

stdin: Entry `R5C` has what protein stability index?
stdout: 1.99

stdin: Entry `Y14G` has what protein stability index?
stdout: 2.18

stdin: Entry `T12Q` has what protein stability index?
stdout: 2.3

stdin: Entry `L22E` has what protein stability index?
stdout: 2.03

stdin: Entry `P13Q` has what protein stability index?
stdout: 1.94

stdin: Entry `L4V` has what protein stability index?
stdout: 1.86

stdin: Entry `E24G` has what protein stability index?
stdout: 2.15
